Test system: GM1 production in Jurkat cells
Assay: cells
Type: cell-based
Conditions: Homo sapiens, Jurkat, 72 h
Measurement Kind: IC50 (nM)

>>> test_result("CC(C)Oc1cccc(-c2cc3c(cc2F)C(NC(=O)O[C@@H]2CN4CCC2CC4)C(C)(C)C3)c1 (stereo partly shown)")
87.5
>>> test_result("COc1cc(-c2ccc3c(c2)CC(C)(C)C3NC(=O)O[C@@H]2CN3CCC2CC3)cc(C(F)(F)F)c1 (stereo partly shown)")
18.8
>>> test_result("CC1(C)Cc2ccc(-c3cccc(C(F)(F)F)c3)cc2C1NC(=O)O[C@@H]1CN2CCC1CC2 (stereo partly shown)")
173
>>> test_result("O=C(NC1CCc2cc(-c3ccc(F)c(F)c3F)ccc21)O[C@@H]1CN2CCC1CC2 (stereo partly shown)")
126
>>> test_result("CC1(C)Cc2cc(-c3cc(Cl)cc(Cl)c3)ccc2C1NC(=O)O[C@@H]1CN2CCC1CC2 (stereo partly shown)")
23.6
>>> test_result("CC1(C)Cc2cc(-c3cccc4ccncc34)ccc2C1NC(=O)O[C@@H]1CN2CCC1CC2 (stereo partly shown)")
10.5
>>> test_result("CCOc1c(C)cc(-c2cc3c(cc2F)C(NC(=O)O[C@@H]2CN4CCC2CC4)C(C)(C)C3)cc1C (stereo partly shown)")
68.2
>>> test_result("COCCOc1cccc(-c2ccc3c(c2)CC2(CC2)C3NC(=O)O[C@@H]2CN3CCC2CC3)c1 (stereo partly shown)")
39.6
>>> test_result("CC1(C)Cc2cc(-c3ccsc3)ccc2C1NC(=O)O[C@@H]1CN2CCC1CC2 (stereo partly shown)")
12.1
>>> test_result("CC(C)Oc1ccc(-c2ccc3c(c2)CC(C)(C)C3NC(=O)O[C@@H]2CN3CCC2CC3)cc1 (stereo partly shown)")
6.2
>>> test_result("CC1(C)Cc2ccc(-c3ccc(F)c(F)c3)cc2C1NC(=O)O[C@@H]1CN2CCC1CC2 (stereo partly shown)")
103
>>> test_result("COCc1ccc(-c2ccc3c(c2)CC(C)(C)C3NC(=O)O[C@@H]2CN3CCC2CC3)cc1 (stereo partly shown)")
27.6
>>> test_result("CCCCOc1c(C)cc(-c2cc3c(cc2F)C(NC(=O)O[C@@H]2CN4CCC2CC4)C(C)(C)C3)cc1C (stereo partly shown)")
22.9
>>> test_result("O=C(NC1c2ccc(-c3ccc(Cl)cc3)cc2CC12CC2)O[C@@H]1CN2CCC1CC2 (stereo partly shown)")
44.1
>>> test_result("CC1(C)Oc2cc(-c3cccc(Cl)c3)ccc2C1NC(=O)O[C@@H]1CN2CCC1CC2 (stereo partly shown)")
15.8
>>> test_result("COc1ccc(Cl)cc1-c1cc2c(cc1F)C(NC(=O)O[C@@H]1CN3CCC1CC3)C(C)(C)C2 (stereo partly shown)")
17.2
>>> test_result("CC1(C)Cc2cc(-c3cccc(F)c3)ccc2C1NC(=O)O[C@@H]1CN2CCC1CC2 (stereo partly shown)")
6.3
>>> test_result("CCC1(CC)Cc2cc(-c3cccc(C(C)(C)C)c3)ccc2C1NC(=O)O[C@@H]1CN2CCC1CC2 (stereo partly shown)")
10.4
>>> test_result("COc1ccc(-c2ccc3c(c2)CC(C)(C)C3NC(=O)O[C@@H]2CN3CCC2CC3)cc1Cl (stereo partly shown)")
50.8
>>> test_result("CC(C)COc1ccc(-c2cc3c(cc2F)C(NC(=O)O[C@@H]2CN4CCC2CC4)C(C)(C)C3)cc1 (stereo partly shown)")
2.5
>>> test_result("CC1(C)Cc2ccc(-c3cc(F)ccc3F)cc2C1NC(=O)O[C@@H]1CN2CCC1CC2 (stereo partly shown)")
56.2
>>> test_result("CCC1(CC)Cc2cc(-c3ccc(OC)c(OC)c3)ccc2C1NC(=O)O[C@@H]1CN2CCC1CC2 (stereo partly shown)")
63.2
>>> test_result("COc1ccc(Cl)cc1-c1cc2c(cc1OC)C(NC(=O)O[C@@H]1CN3CCC1CC3)C(C)(C)C2 (stereo partly shown)")
16.8
>>> test_result("O=C(NC1CCc2cc(-c3ccccc3Cl)ccc21)O[C@@H]1CN2CCC1CC2 (stereo partly shown)")
65.5
>>> test_result("O=C(NC1CCc2cc(-c3ccc(OC(F)(F)F)cc3)ccc21)O[C@@H]1CN2CCC1CC2 (stereo partly shown)")
95.8
>>> test_result("COCOc1ccccc1-c1ccc2c(c1)CC(C)(C)C2NC(=O)O[C@@H]1CN2CCC1CC2 (stereo partly shown)")
17.4
>>> test_result("CC1(C)Cc2cc(-c3ccc(OCC(F)F)cc3)ccc2C1NC(=O)O[C@@H]1CN2CCC1CC2 (stereo partly shown)")
6.8
>>> test_result("CC(C)(C)Oc1cc(-c2ccc3c(c2)CC(C)(C)C3NC(=O)O[C@@H]2CN3CCC2CC3)ccn1 (stereo partly shown)")
31.7
>>> test_result("CC1(C)Cc2cc(-c3ccc(Cl)c(Cl)c3)ccc2C1NC(=O)O[C@@H]1CN2CCC1CC2 (stereo partly shown)")
43.9
>>> test_result("CCC1(CC)Cc2cc(-c3ccc(OC)cc3)ccc2C1NC(=O)O[C@@H]1CN2CCC1CC2 (stereo partly shown)")
17.2
>>> test_result("COc1ccc(-c2cc3c(cc2OC)C(NC(=O)O[C@@H]2CN4CCC2CC4)C(C)(C)C3)c(Cl)c1 (stereo partly shown)")
38.3

This collection of values is drawn from patent US12522602B2.
